Where do the numbers come from? From paper PMC10912632.

Biological target: Sphingobacterium multivorum SPT (Sphingobacterium multivorum)
Construct: harboring the plasmid expressing the full-length SPT; made in house; host or cells: Escherichia coli BL21 (DE3) pLysS
Sequence (A7BFV6 whole entry): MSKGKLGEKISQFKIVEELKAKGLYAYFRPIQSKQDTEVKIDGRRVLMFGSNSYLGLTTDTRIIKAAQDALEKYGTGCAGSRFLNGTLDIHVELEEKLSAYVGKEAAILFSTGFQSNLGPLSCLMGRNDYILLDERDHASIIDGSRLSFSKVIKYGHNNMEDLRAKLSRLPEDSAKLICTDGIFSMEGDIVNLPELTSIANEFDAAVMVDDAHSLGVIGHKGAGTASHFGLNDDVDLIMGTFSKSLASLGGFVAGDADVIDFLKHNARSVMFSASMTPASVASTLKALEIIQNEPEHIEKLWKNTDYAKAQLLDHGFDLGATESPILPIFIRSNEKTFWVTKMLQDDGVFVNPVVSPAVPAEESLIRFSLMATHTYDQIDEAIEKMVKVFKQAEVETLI
Assay: Spectroscopic titration of SPT with amino acids (422 nm absorption, external aldimine formation)
Type: binding
Settings: 10 μM SPT
READOUT_NAME: Kd (mM)
Unit mM implied. Number only.

The examples below pair each entry with its known result.
>>> result_value("N[C@H](CO)C(=O)O [D-serine]")
11
>>> result_value("N[C@H](CCO)C(=O)O [D-homoserine]")
90
>>> result_value("C[C@](N)(CO)C(=O)O [α-methyl-L-serine, reference compound]")
8.3

Q: # get_value(readout='Kd', item= C[C@@](N)(CO)C(=O)O [α-methyl-D-serine, reference compound] )
Result: 27
